- Tested on: L1210 leukemia ip in BDF1 mice, survival T/C
- experiment description: NCI In Vivo Anticancer Drug Screen. Data for tumor model L1210 Leukemia (intraperitoneal) in B6D2F1 (BDF1) mice
- applied conditions: endpoint: mean survival time; dose: 100.0 mg/kg/injection; schedule: Q04DX003 (ip); vehicle: Klucel (hydroxypropylcellulose) (HPC); higher = longer survival
Inconclusive results and toxic doses are left out.
Catalogue of compounds with associated T/C

{"columns": ["compound", "assay target", "T/C"],
 "data": [
  ["COC1=NS(=O)(=O)CC(N2C(=O)CCC2=O)O1 (configuration not stated)", "L1210 leukemia ip in BDF1 mice, survival T/C", "98 % of control"],
  ["CCCCSCC(N)C(=O)O (configuration not stated)", "L1210 leukemia ip in BDF1 mice, survival T/C", "92 % of control"],
  ["COC(=O)c1c2c(nc3ccccc13)-c1ccccc1C(C)(C)C2OC (configuration not stated)", "L1210 leukemia ip in BDF1 mice, survival T/C", "113 % of control"],
  ["Cc1cc(C)nc(NC(=O)Nc2ccccc2)c1", "L1210 leukemia ip in BDF1 mice, survival T/C", "94 % of control"],
  ["S=c1ncn(C2CCCCC2)c(=S)[nH]1", "L1210 leukemia ip in BDF1 mice, survival T/C", "95 % of control"],
  ["CN(C)c1ccc(/C=C/c2ccc3ccccc3n2)c(F)c1", "L1210 leukemia ip in BDF1 mice, survival T/C", "100 % of control"],
  ["COC(=O)COC1=NCC([N+](=O)[O-])CC1 (configuration not stated)", "L1210 leukemia ip in BDF1 mice, survival T/C", "100 % of control"],
  ["O=C(O)CCSSCCC(=O)O", "L1210 leukemia ip in BDF1 mice, survival T/C", "86 % of control"],
  ["Cc1cc(C)cc(OCC(=O)O)c1", "L1210 leukemia ip in BDF1 mice, survival T/C", "95 % of control"],
  ["CC(C)(C)NS(=O)(=O)c1ccc(Cl)c([N+](=O)[O-])c1", "L1210 leukemia ip in BDF1 mice, survival T/C", "95 % of control"],
  ["C=C(C)C1CCC2(C(=O)O)CCC3(C)C(CCC4C5(C)CCC(=O)C(C)(C)C5CCC43C)C12 (configuration not stated)", "L1210 leukemia ip in BDF1 mice, survival T/C", "102 % of control"],
  ["Cc1ccc(C)c(C(C)NC(=O)NCCCl)c1 (configuration not stated)", "L1210 leukemia ip in BDF1 mice, survival T/C", "91 % of control"],
  ["O=[N+]([O-])c1ccc(N=N/C(Cc2ccccc2)=N\\Nc2ccccc2)cc1", "L1210 leukemia ip in BDF1 mice, survival T/C", "87 % of control"],
  ["O=C(/C(=C1\\SS/C(=C(/C(=O)c2ccccc2)c2ccccc2)S1)c1ccccc1)c1ccccc1", "L1210 leukemia ip in BDF1 mice, survival T/C", "100 % of control"],
  ["C=C(C)Cc1cnc(SCc2ccccc2)[nH]c1=O", "L1210 leukemia ip in BDF1 mice, survival T/C", "97 % of control"],
  ["CCCCCCCCC(=O)N1CCOCC1", "L1210 leukemia ip in BDF1 mice, survival T/C", "92 % of control"],
  ["O=C(Oc1ccccc1)Oc1c(Cl)cc([N+](=O)[O-])cc1[N+](=O)[O-]", "L1210 leukemia ip in BDF1 mice, survival T/C", "100 % of control"],
  ["COC(=O)/C=C\\C(=O)OC", "L1210 leukemia ip in BDF1 mice, survival T/C", "95 % of control"],
  ["O=S1(=O)CC(c2cccc3ccccc23)Nc2ccccc21 (configuration not stated)", "L1210 leukemia ip in BDF1 mice, survival T/C", "95 % of control"],
  ["COc1nc(NNC(N)=S)ccc1[N+](=O)[O-]", "L1210 leukemia ip in BDF1 mice, survival T/C", "91 % of control"],
  ["ClC1CC2CCC1(Cl)C2 (configuration not stated)", "L1210 leukemia ip in BDF1 mice, survival T/C", "96 % of control"],
  ["COC(=O)C1ON(C(=O)c2ccccc2)C(C)C(O)C1I (configuration not stated)", "L1210 leukemia ip in BDF1 mice, survival T/C", "96 % of control"],
  ["COc1cc2c(cc1OC)-c1ncnc(-c3ccccc3)c1C2", "L1210 leukemia ip in BDF1 mice, survival T/C", "95 % of control"],
  ["CCN(CC)/N=N/c1nc[nH]c1C(N)=O", "L1210 leukemia ip in BDF1 mice, survival T/C", "102 % of control"],
  ["CCOC(=O)C(C#N)NC(C)=O (configuration not stated)", "L1210 leukemia ip in BDF1 mice, survival T/C", "102 % of control"],
  ["CCc1ccccc1NC(=O)Nc1ccc(OC)cc1", "L1210 leukemia ip in BDF1 mice, survival T/C", "94 % of control"],
  ["CC1(C)C2CC3C(=CCC4C(=O)OC(=O)C43)C1C2 (configuration not stated)", "L1210 leukemia ip in BDF1 mice, survival T/C", "101 % of control"],
  ["CS(=O)(=O)Oc1cccc(C2CS(=O)(=O)c3ccccc3N2)c1 (configuration not stated)", "L1210 leukemia ip in BDF1 mice, survival T/C", "97 % of control"],
  ["COc1cc(C=O)cc(OC)c1OC", "L1210 leukemia ip in BDF1 mice, survival T/C", "93 % of control"],
  ["CN(C)C(=S)SN(C)C(=O)Nc1ccccc1", "L1210 leukemia ip in BDF1 mice, survival T/C", "105 % of control"],
  ["C=CCN(CC=C)c1nn[nH]n1", "L1210 leukemia ip in BDF1 mice, survival T/C", "92 % of control"],
  ["CCOC(=O)/C(N=O)=C(/O)c1ccncc1", "L1210 leukemia ip in BDF1 mice, survival T/C", "96 % of control"],
  ["N#Cc1c2c(c(O)[nH]c1=O)CCCC2", "L1210 leukemia ip in BDF1 mice, survival T/C", "94 % of control"],
  ["CC(/C=N/O)=C1C=CC=C1", "L1210 leukemia ip in BDF1 mice, survival T/C", "102 % of control"],
  ["CN1C(=O)CN=C(c2ccc[nH]2)c2cc(Cl)ccc21 (tested in a mixture with another compound)", "L1210 leukemia ip in BDF1 mice, survival T/C", "103 % of control"],
  ["O=CNC(NC=O)c1ccccc1[N+](=O)[O-]", "L1210 leukemia ip in BDF1 mice, survival T/C", "104 % of control"],
  ["CC(=O)NOCc1ccc([N+](=O)[O-])cc1", "L1210 leukemia ip in BDF1 mice, survival T/C", "95 % of control"]
]}
